- System: Noggin (protein binding on small-molecule microarray)
- Assay overview: Noggin binders on small-molecule microarray, primary screen, biochemical, 635/667 nm fluorescence (AID 1095);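 also: score merges 667 nm feature fluorescence with signal to noise over triplicate slides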
- Run conditions: 635 nm fluorescence, higher = more signal
Each entry belongs to exactly one class, chosen by where its composite z-score falls: bucket A: < 0.3; bucket B: ≥ 0.3 and < 1; bucket C: ≥ 1

# example entries with known answers
COCCOC(=O)N1C(=O)[C@@]2(c3cc(C#CC4=CCCCC4)ccc31)[C@H](C(=O)N1CCN(c3ncccn3)CC1)[C@H]1C(=O)O[C@H](c3ccccc3)[C@H](c3ccccc3)N1[C@@H]2c1ccc(O)cc1; bucket B
C=CC[C@@H](OC(=O)Nc1ccc(OC)cc1)c1ccc(OCCO)cc1; bucket A
CN(C)CCCNC(=O)[C@@H]1c2ccccc2C(=O)N(Cc2ccc(OC(F)(F)F)cc2)[C@H]1c1ccc(CO)cc1; bucket B

Please look at the following compound next.
Which class holds `C=C(/C(=C/C[C@@H](OC(=O)c1ccncc1)c1ccccc1OCCO)c1cc(C(=O)OC)ccc1OC)C(C)C` ?
bucket B

----------
- Target of assay: Torsin-1A-interacting protein 2 (Homo sapiens) (UniProt Q8NFQ8)
- Sequence (Q8NFQ8 whole entry, looked up): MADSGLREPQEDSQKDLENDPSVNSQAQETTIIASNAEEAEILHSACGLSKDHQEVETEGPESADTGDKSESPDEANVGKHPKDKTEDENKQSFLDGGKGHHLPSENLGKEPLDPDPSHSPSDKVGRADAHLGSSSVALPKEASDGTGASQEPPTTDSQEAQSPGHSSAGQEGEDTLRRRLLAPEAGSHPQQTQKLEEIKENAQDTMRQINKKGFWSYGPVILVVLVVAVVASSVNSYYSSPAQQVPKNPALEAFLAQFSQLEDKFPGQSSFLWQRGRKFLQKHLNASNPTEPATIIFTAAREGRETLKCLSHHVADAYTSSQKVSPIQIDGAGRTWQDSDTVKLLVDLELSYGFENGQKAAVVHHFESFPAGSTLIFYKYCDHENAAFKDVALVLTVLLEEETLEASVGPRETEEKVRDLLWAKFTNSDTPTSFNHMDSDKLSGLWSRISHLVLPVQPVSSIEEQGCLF
- Assay overview: LULL1 binders on small-molecule microarray, primary screen, cell lysate, human LULL1 lysate, 635/667 nm fluorescence (AID 1092);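 also: probe is lysate of COS7 cells overexpressing human LULL1; score merges per-feature 667 nm fluorescence with signal-to-noise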
- Run conditions: hLULL1 lysate binding, 635 nm fluorescence, higher = more signal
Recorded endpoint: composite z-score
One number for each entry.

# count of solved cases: 6
CCOC(=O)[C@H]1C/C=C/C[C@H](C(=O)OCC)C(=O)O[C@H]2[C@@H](OC)O[C@H](CO)[C@@H](OC(=O)Nc3ccc(OC)cc3)[C@@H]2OC1=O; 2.03
C[C@H]1C2=C3C(CC[C@H]4C(OCc5ccc(F)cc5C(F)(F)F)OC[C@](C)([C@@H]34)N(C(=O)OC(C)(C)C)C2)C2COC(=O)OCC21 (stereo not given in full); 3.52
CCCC=C(CCC)[C@@H](NP(=O)(c1ccccc1)c1ccccc1)c1ccc(C(F)(F)F)cc1; 1.01
CC(CO)N1C(=O)[C@@H]2C3C(=O)OCCC/C=C\[C@H]3OC23C=CCN(Cn2nnc4ccccc42)C(=O)[C@@H]13 (stereo not given in full); -1.1
COc1ccc([Si](C)(C)[C@@H]2[C@@H](CCO)O[C@]3(C(=O)N(Cc4cccc(N5C(=O)c6cccc7cccc5c67)c4)c4ccccc43)[C@H]2C)cc1; 1.24
CCOC(=O)C[C@H]1[C@H](OC(=O)Cc2ccc3c(c2)OCO3)[C@@H](NC(=O)C2CCCCC2)c2cc(OCCCO)ccc2N1C(=O)c1ccc2ccccc2n1; 1.34

I'm hoping you can list composite z-score for every molecule here, please.
1. COc1ccc(NN2C(C(O)c3ccco3)C=CC3C(=O)N(C4CCCCC4)C(=O)C32)cc1 (stereo not given)
2. C[C@]12C(=O)N(CCCCCCO)[C@@H]3C(=O)N(c4ccc(Cl)cc4)CC=CC31O[C@@H]1/C=C\CCCOC(=O)C12 (stereo not given in full)
3. C=C(C(=O)CC[C@H](OC(C)=O)c1cccc(OCCO)c1)C(C)C
4. CC(C)C(=C=CC[C@@H](O)c1ccccc1OCCO)C[C@@H](O)COCc1ccccc1
5. C=CCN1C(=O)[C@]2(CC=C)N=C(c3ccc(OCCCO)cc3)O[C@@H]2c2ccccc21
6. NCCCCCCNC(=O)[C@@H]1C[C@@H]2C(=O)N3CCC[C@H]3C(=O)N2[C@@H]1c1ccc(O)cc1
7. CC(=O)n1cc(C(O)C2C=CC3C(=O)N(Cc4ccccc4)C(=O)C3N2n2cnnc2)c2ccccc21 (stereo not given)

1. 3.06
2. 3.27
3. 0.355
4. 1.16
5. 3.13
6. 2.02
7. 1.23

Hey, quick one: what's composite z-score for each of these?
1. CC(C)c1ccc(NN2C(C(O)c3ccco3)C=CC3C(=O)N(c4ccccc4)C(=O)C32)cc1 (stereo not given)
2. O=C1O[C@@H](c2ccccc2)[C@@H](c2ccccc2)N2[C@@H](c3ccc(O)cc3)[C@]3(C(=O)Nc4ccccc43)[C@@H](C(=O)Nc3nc4ccccc4s3)[C@H]12

1: 3.27; 2: 2.77
